Origin of measurements: ChEMBL document CHEMBL4017546

Species on record: Homo sapiens
Assay: Selectivity ratio of IC50 for human Fc-conjugated TNF-R/FLAG-tagged biotinylated TNFalpha protein-protein interaction to IC50 for human Fc-conjugated CD40/FLAG-tagged biotinylated CD40L costimulatory protein-protein interaction
Measure: Ratio IC50

Go through the list and state Ratio IC50 for each entry.
1. O=C(Nc1ccc(-c2ccc(C(=O)Nc3ccc(S(=O)(=O)O)c4ccccc34)cc2)cc1)c1ccc([N+](=O)[O-])cc1
2. Nc1ccc(C(=O)Nc2ccc(-c3ccc(C(=O)Nc4cccc5cccc(S(=O)(=O)O)c45)cc3)cc2)cc1
3. O=C(Nc1ccc(-c2ccc(C(=O)Nc3cccc4cccc(S(=O)(=O)O)c34)cc2)cc1)c1ccc2[nH]nnc2c1
4. O=C(Nc1ccc(C(=O)Nc2cccc3cccc(S(=O)(=O)O)c23)cc1)c1ccc([N+](=O)[O-])cc1

1: > 100; 2: > 100; 3: > 100; 4: > 100

----------
Field: pIC50. Provide a value for each of the compounds that follow.
Molecular target: CD40-CD40L (Homo sapiens, UniProt P25942+P29965)
Experiment: Inhibition of human Fc-conjugated CD40/FLAG-tagged biotinylated CD40L costimulatory protein-protein interaction incubated for 1 hr by ELISA-type assay
Answers are plain numbers, as −log10 of the molar value.

| Smiles data | Measured value |
| --- | --- |
| Nc1ccc(C(=O)Nc2ccc(-c3ccc(C(=O)Nc4cccc5cccc(S(=O)(=O)O)c45)cc3)cc2)cc1 | 3.52 |
| O=C(Nc1ccc2c(O)c(/N=N/c3ccc(/N=N\c4ccc(S(=O)(=O)O)cc4)cc3S(=O)(=O)O)c(S(=O)(=O)O)cc2c1)Nc1ccc2c(O)c(/N=N/c3ccc(/N=N\c4ccc(S(=O)(=O)O)cc4)cc3S(=O)(=O)O)c(S(=O)(=O)O)cc2c1 | 5.65 |

Determine its reported pIC50: O=C(Nc1ccc(-c2ccc(C(=O)Nc3cccc4cccc(S(=O)(=O)O)c34)cc2)cc1)c1ccc([N+](=O)[O-])cc1
6.51

----------
Molecular target: MAC1-CD40L (Homo sapiens) (UniProt P05107+P11215+P29965)
Sequence (P05107 whole entry, looked up, other chains not shown): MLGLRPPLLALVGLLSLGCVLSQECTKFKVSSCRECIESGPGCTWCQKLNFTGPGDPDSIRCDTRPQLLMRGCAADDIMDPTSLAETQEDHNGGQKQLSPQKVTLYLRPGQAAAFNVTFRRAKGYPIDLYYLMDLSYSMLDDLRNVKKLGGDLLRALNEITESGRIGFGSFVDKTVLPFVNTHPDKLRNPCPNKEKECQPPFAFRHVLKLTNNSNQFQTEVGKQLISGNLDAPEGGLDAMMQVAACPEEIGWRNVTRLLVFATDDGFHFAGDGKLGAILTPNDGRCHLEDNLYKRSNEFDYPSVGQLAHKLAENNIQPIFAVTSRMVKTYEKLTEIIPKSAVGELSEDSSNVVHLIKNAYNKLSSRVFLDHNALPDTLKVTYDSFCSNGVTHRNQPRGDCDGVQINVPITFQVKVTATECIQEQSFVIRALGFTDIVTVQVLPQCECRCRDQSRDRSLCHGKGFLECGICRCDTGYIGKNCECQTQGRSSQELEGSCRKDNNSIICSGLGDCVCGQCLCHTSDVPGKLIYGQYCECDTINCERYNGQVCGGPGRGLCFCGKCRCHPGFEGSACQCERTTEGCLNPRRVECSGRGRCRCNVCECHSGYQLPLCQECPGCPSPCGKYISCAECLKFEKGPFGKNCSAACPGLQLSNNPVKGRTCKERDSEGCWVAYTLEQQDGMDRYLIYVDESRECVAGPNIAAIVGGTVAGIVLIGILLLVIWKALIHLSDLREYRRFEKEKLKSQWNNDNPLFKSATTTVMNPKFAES
Sequence (P29965 whole entry, looked up, other chains not shown): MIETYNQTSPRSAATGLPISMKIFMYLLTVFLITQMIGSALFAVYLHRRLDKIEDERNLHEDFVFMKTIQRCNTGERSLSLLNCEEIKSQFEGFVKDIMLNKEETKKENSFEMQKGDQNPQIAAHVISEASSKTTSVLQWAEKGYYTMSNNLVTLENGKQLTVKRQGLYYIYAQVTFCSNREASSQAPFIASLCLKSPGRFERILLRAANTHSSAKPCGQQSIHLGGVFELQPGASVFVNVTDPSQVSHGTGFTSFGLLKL
Experiment: Inhibition of human Fc-conjugated Mac1/FLAG-tagged biotinylated CD40L protein-protein interaction incubated for 1 hr by ELISA-type assay
Calls of active or inactive are those of the source. The calls are words filed in the database; no cut-off is given here.
Measure: inhibition

As a guide, the following entries are already answered.
| Smiles data | Tested system | inhibition |
| --- | --- | --- |
| O=C(Nc1ccc2c(O)c(/N=N/c3ccc(/N=N\c4ccc(S(=O)(=O)O)cc4)cc3S(=O)(=O)O)c(S(=O)(=O)O)cc2c1)Nc1ccc2c(O)c(/N=N/c3ccc(/N=N\c4ccc(S(=O)(=O)O)cc4)cc3S(=O)(=O)O)c(S(=O)(=O)O)cc2c1 | MAC1-CD40L (Homo sapiens) (UniProt P05107+P11215+P29965) | Active |
| Nc1ccc(C(=O)Nc2ccc(-c3ccc(C(=O)Nc4cccc5cccc(S(=O)(=O)O)c45)cc3)cc2)cc1 | MAC1-CD40L (Homo sapiens) (UniProt P05107+P11215+P29965) | Active |
| COC(=O)c1ccc(C(=O)Nc2ccc(-c3ccc(C(=O)Nc4cccc5cccc(S(=O)(=O)O)c45)cc3)cc2)cc1 | MAC1-CD40L (Homo sapiens) (UniProt P05107+P11215+P29965) | Active |
| O=C(Nc1ccc(-c2ccc(C(=O)Nc3cccc4cccc(S(=O)(=O)O)c34)cc2)cc1)c1ccc([N+](=O)[O-])cc1 | MAC1-CD40L (Homo sapiens) (UniProt P05107+P11215+P29965) | Active |
| O=C(Nc1ccc(C(=O)Nc2cccc3cccc(S(=O)(=O)O)c23)cc1)c1ccc([N+](=O)[O-])cc1 | MAC1-CD40L (Homo sapiens) (UniProt P05107+P11215+P29965) | Active |

# next compound below
Determine its reported inhibition: O=C(Nc1ccc(-c2ccc(C(=O)Nc3ccc(C(=O)O)c4ccccc34)cc2)cc1)c1ccc([N+](=O)[O-])cc1
Active
